Origin of values: paper PMC8808179

Molecular target: T1, cynomolgus monkey (nonhuman primate) IL-13 (Macaca fascicularis)
T1 chain: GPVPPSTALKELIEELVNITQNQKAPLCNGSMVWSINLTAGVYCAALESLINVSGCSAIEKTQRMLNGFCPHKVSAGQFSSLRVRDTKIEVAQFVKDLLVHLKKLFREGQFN
Experiment: KinExA
QUANTITY_KIND: Kd (pM)
Field: numeric (pM). Do not append units.

Worked cases, Kd given:
BINDER: MMAb3 (LC1/HC1) (antibody, V domains shown) VH: EVQLLESGGGLVQPGGSLRLSCAASGFTFSSYAMSWVRQAPGKGLEWVSAFSGWDVSTYYADSVKGRFTISRDNSKNTLYLQMNSLRAEDTAVYYCVQDGLGPYFYNYGMDVWGQGTTVTVSS VL: SYELTQPPSVSVSPGQTASITCSGDKLGDKYSFWFQQKPGQSPVLVIYHDSKRPSGIPERFSGSNSGDTATLTISGTQAMDEADYYCQAWDSSTYVFGTGTKVTVL
UNITS_LABEL: pM
Kd: 5.1

BINDER: MMAb1 (LC1/HC2) (antibody, V domains shown) VH: EVQLLESGGGLVQPGGSLRLSCAASGFTFSSYAGSWVRQAPGKGLEWVSAFSGSGGSTYYADSVKGRFTISRDNSKNTLYLQMNSLRAEDTAVYYCVQDGLGPYFYNYGMDVWGQGTTVTVSS VL: SYELTQPPSVSVSPGQTASITCSGDKLGDKYSFWFQQKPGQSPVLVIYHDSKRPSGIPERFSGSNSGDTATLTISGTQAMDEADYYCQAWDSSTYVFGTGTKVTVL
UNITS_LABEL: pM
Kd: 18.7

BINDER: antibody 731 (antibody, V domains shown) VH: EVQLLESGGGLVQPGGSLRLSCAASGFTFSSYAMSWVRQAPGKGLEWVSAFSGSGGSTYYADSVKGRFTISRDNSKNTLYLQMNSLRAEDTAVYYCVQDGLGPYFYNYGMDVWGQGTTVTVSS VL: SYELTQPPSVSVSPGQTASITCSGDKLGDKYTCWFQQKPGQSPVLVIYHDSKRPSGIPERFSGSNSGDTATLTISGTQAMDEADYYCQAWDSSTYVFGTGTKVTVL
UNITS_LABEL: pM
Kd: 3550

Give its Kd value. Item: MMAb2 (LC2/HC2) (antibody, V domains shown) VH: EVQLLESGGGLVQPGGSLRLSCAASGFTFSSYAGSWVRQAPGKGLEWVSAFSGSGGSTYYADSVKGRFTISRDNSKNTLYLQMNSLRAEDTAVYYCVQDGLGPYFYNYGMDVWGQGTTVTVSS VL: SYELTQPPSVSVSPGQTASITCSGDKLGDKYAFWFQQKPGQSPVLVIYHDSKRPSGIPERFSGSNSGDTATLTISGTQAMDEADYYCQAWDSSTYVFGTGTKVTVL
12.4
